The measurements presented in this section are drawn from paper PMC11203978.

# System: HuTu 80
# assay_info: MTT cytotoxicity, HuTu 80
# Type: cell-based, human
# details: Homo sapiens, HuTu80, 48 h, MTT, 48 h incubation; read-out: IC50 (µM) Cancer Cell Lines HuTu 80
Would you kindly list IC50 for each of these compounds?

Problem: // IC50 lookup, key: O=C(C[n+]1ccccc1)NCCC1c2c(ccc3ccccc23)Oc2ccc3ccccc3c21.[Cl-]
Result: 58.4 µM

Problem: // IC50 lookup, key: O=C(CCl)NCC1c2c(ccc3ccccc23)Oc2ccc3ccccc3c21
Result: > 100 µM

Problem: // IC50 lookup, key: C[P+](CC(=O)NCCC1c2c(ccc3ccccc23)Oc2ccc3ccccc3c21)(c1ccccc1)c1ccccc1
Result: 64.3 µM

Problem: // IC50 lookup, key: O=C(CCl)NCCC1c2c(ccc3ccc(O)cc23)Oc2ccc3ccc(O)cc3c21
Result: 18.1 µM

----------
Counter-ions that a name gives are not always drawn.
Would you kindly list melting point for each of these molecules?

Problem: // melting point lookup, key: O=C(C[P+](c1ccccc1)(c1ccccc1)c1ccccc1)NCC(c1cc2c(cc1O)OCO2)c1cc2c(cc1O)OCO2 [Compound 7a]
Result: 178 to 181 °C

Problem: // melting point lookup, key: O=C(NCC(c1c(O)c2ccccc2oc1=O)c1c(O)c2ccccc2oc1=O)c1nc2ccccc2[nH]1
Result: 263 to 265 °C

Problem: // melting point lookup, key: O=C(C[n+]1ccccc1)NCCC(c1cc2c(cc1O)OCO2)c1cc2c(cc1O)OCO2 [Compound 9b]
Result: 159 °C

Problem: // melting point lookup, key: O=C(CCl)NCC1c2c(ccc3ccc(O)cc23)Oc2ccc3ccc(O)cc3c21 [Compound 3b]
Result: > 250 °C

Problem: // melting point lookup, key: C[P+](CC(=O)NCCC1c2c(ccc3ccccc23)Oc2ccc3ccccc3c21)(c1ccccc1)c1ccccc1 (as salt: salt) [Compound 6b]
Result: 161 to 162 °C

Problem: // melting point lookup, key: O=C(CCl)NCCC(c1cc2c(cc1O)OCO2)c1cc2c(cc1O)OCO2 [Compound 4b]
Result: 166 to 168 °C

Problem: // melting point lookup, key: O=C(NCC(c1cc2c(cc1O)OCO2)c1cc2c(cc1O)OCO2)c1nc2ccccc2[nH]1 [Compound 12a]
Result: 216 to 217 °C

Problem: // melting point lookup, key: O=C(CCl)NCCC(c1c(O)c2ccccc2oc1=O)c1c(O)c2ccccc2oc1=O [Compound 5b]
Result: 134 °C

Problem: // melting point lookup, key: O=C(CCl)NCCC1c2c(ccc3ccccc23)Oc2ccc3ccccc3c21 [Compound 3c]
Result: 147 to 149 °C

Problem: // melting point lookup, key: C[P+](CC(=O)NCCCC1c2c(ccc3ccccc23)Oc2ccc3ccccc3c21)(c1ccccc1)c1ccccc1 [Compound 6d]
Result: 199 to 200 °C

Problem: // melting point lookup, key: O=C(C[P+](c1ccccc1)(c1ccccc1)c1ccccc1)NCCCC1c2c(ccc3ccccc23)Oc2ccc3ccccc3c21 [Compound 6c]
Result: 204 to 205 °C

Problem: // melting point lookup, key: O=C(C[P+](c1ccccc1)(c1ccccc1)c1ccccc1)NCCC(c1cc2c(cc1O)OCO2)c1cc2c(cc1O)OCO2 [Compound 7b]
Result: > 250 °C

Problem: // melting point lookup, key: O=C(C[n+]1ccccc1)NCC(c1cc2c(cc1O)OCO2)c1cc2c(cc1O)OCO2 [Compound 9a]
Result: 178 to 180 °C

Problem: // melting point lookup, key: O=C(NCC1c2c(ccc3ccccc23)Oc2ccc3ccccc3c21)c1nc2ccccc2[nH]1 [Compound 11a]
Result: 216 °C

Problem: // melting point lookup, key: O=C(C[n+]1ccccc1)NCCC1c2c(ccc3ccccc23)Oc2ccc3ccccc3c21.[Cl-] [Compound 8]
Result: 156 °C

Problem: // melting point lookup, key: O=C(CCl)NCCCC(c1cc2c(cc1O)OCO2)c1cc2c(cc1O)OCO2 [Compound 4c]
Result: 189 to 191 °C

Problem: // melting point lookup, key: O=C(CCl)NCC(c1c(O)c2ccccc2oc1=O)c1c(O)c2ccccc2oc1=O
Result: 187 to 188 °C

Problem: // melting point lookup, key: Cc1cc(O)c(C(CCNC(=O)c2nc3ccccc3[nH]2)c2c(O)cc(C)oc2=O)c(=O)o1 [Compound 12c]
Result: 189 to 191 °C

Problem: // melting point lookup, key: O=C(CCl)NCC1c2c(ccc3ccccc23)Oc2ccc3ccccc3c21 [Compound 3a]
Result: 200 to 203 °C

Problem: // melting point lookup, key: O=C(CCl)NCCC1c2c(ccc3ccc(O)cc23)Oc2ccc3ccc(O)cc3c21 [Compound 3d]
Result: 137 to 139 °C

Problem: // melting point lookup, key: O=C(CCl)NCCCC1c2c(ccc3ccc(O)cc23)Oc2ccc3ccc(O)cc3c21 [Compound 3f]
Result: 180 °C

Problem: // melting point lookup, key: O=C(CCl)NCC(c1cc2c(cc1O)OCO2)c1cc2c(cc1O)OCO2 [Compound 4a]
Result: 180 to 182 °C

Problem: // melting point lookup, key: O=C(NCC1c2c(ccc3ccc(O)cc23)Oc2ccc3ccc(O)cc3c21)c1nc2ccccc2[nH]1 [Compound 11b]
Result: 224 to 225 °C

Problem: // melting point lookup, key: O=C(CCl)NCCCC1c2c(ccc3ccccc23)Oc2ccc3ccccc3c21 [Compound 3e]
Result: 164 to 165 °C

----------
# System: HuTu 80
# assay_info: MTT cytotoxicity, HuTu 80
# Type: cell-based, human
# details: Homo sapiens, HuTu80, 48 h, MTT, 48 h incubation; read-out: IC50 (µM) Cancer Cell Lines HuTu 80
Would you kindly list log10(IC50) for each of these compounds?
In plain terms, each number is the log10 of measured IC50 in µM.

Problem: // log10(IC50) lookup, key: O=C(C[P+](c1ccccc1)(c1ccccc1)c1ccccc1)NCCC1c2c(ccc3ccccc23)Oc2ccc3ccccc3c21
Result: 0.23

Problem: // log10(IC50) lookup, key: O=C(CCl)NCC1c2c(ccc3ccc(O)cc23)Oc2ccc3ccc(O)cc3c21
Result: 1.73

Problem: // log10(IC50) lookup, key: C[P+](CC(=O)NCCCC1c2c(ccc3ccccc23)Oc2ccc3ccccc3c21)(c1ccccc1)c1ccccc1
Result: 1.27

Problem: // log10(IC50) lookup, key: O=C(CCl)NCCC(c1cc2c(cc1O)OCO2)c1cc2c(cc1O)OCO2
Result: 1.42

Problem: // log10(IC50) lookup, key: O=C(NCC1c2c(ccc3ccc(O)cc23)Oc2ccc3ccc(O)cc3c21)c1nc2ccccc2[nH]1 [Compound 11b]
Result: 1.06

Problem: // log10(IC50) lookup, key: Cc1cc(O)c(C(CCNC(=O)CCl)c2c(O)cc(C)oc2=O)c(=O)o1
Result: 0.23

Problem: // log10(IC50) lookup, key: O=C(C[P+](c1ccccc1)(c1ccccc1)c1ccccc1)NCCC(c1cc2c(cc1O)OCO2)c1cc2c(cc1O)OCO2
Result: 1.74

Problem: // log10(IC50) lookup, key: O=C(C[P+](c1ccccc1)(c1ccccc1)c1ccccc1)NCC(c1cc2c(cc1O)OCO2)c1cc2c(cc1O)OCO2
Result: 1.78

Problem: // log10(IC50) lookup, key: O=C(CCl)NCCC1c2c(ccc3ccccc23)Oc2ccc3ccccc3c21
Result: 1.47

Problem: // log10(IC50) lookup, key: CNC(=O)c1cc(Oc2ccc(NC(=O)Nc3ccc(Cl)c(C(F)(F)F)c3)cc2)ccn1 [Sorafenib, reference compound]
Result: 0.70

Problem: // log10(IC50) lookup, key: O=C(C[P+](c1ccccc1)(c1ccccc1)c1ccccc1)NCCCC1c2c(ccc3ccccc23)Oc2ccc3ccccc3c21
Result: 0.86

Problem: // log10(IC50) lookup, key: COc1cccc2c1C(=O)c1c(O)c3c(c(O)c1C2=O)C[C@@](O)(C(=O)CO)C[C@@H]3O[C@H]1C[C@H](N)[C@H](O)[C@H](C)O1 [Doxorubicin, reference compound]
Result: 0.48
